Cited source for all entries: ChEMBL document CHEMBL3085675

Target: UniProt:P29274
Sequence (P29274 whole entry): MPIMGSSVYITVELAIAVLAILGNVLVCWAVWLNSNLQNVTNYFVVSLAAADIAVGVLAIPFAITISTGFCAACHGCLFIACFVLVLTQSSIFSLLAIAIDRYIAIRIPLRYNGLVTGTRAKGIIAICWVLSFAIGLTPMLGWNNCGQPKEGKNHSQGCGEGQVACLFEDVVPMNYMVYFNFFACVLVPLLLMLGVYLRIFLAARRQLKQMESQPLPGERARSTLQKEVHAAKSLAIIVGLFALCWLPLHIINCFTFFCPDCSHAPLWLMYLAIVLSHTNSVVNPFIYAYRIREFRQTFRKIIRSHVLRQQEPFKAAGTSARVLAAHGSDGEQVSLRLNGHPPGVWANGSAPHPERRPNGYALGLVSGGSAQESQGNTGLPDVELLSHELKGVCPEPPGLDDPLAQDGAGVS
Test: Displacement of [3H]NECA from human recombinant adenosine A2A receptor expressed in CHO cells

>  <query smiles>
Cc1ccc(NC(=O)Nc2ncnc3c2nc(-c2ccco2)n3C)cc1

>  <measurement unit>
nM

>  <Ki>
106

$$$$
>  <query smiles>
Cn1c(-c2ccco2)nc2c(NC(=O)Nc3ccccc3)ncnc21

>  <measurement unit>
nM

>  <Ki>
57

$$$$
>  <query smiles>
Cn1c(-c2ccco2)nc2c(NC(=O)Cc3ccc(OCc4ccccc4)cc3)ncnc21

>  <measurement unit>
nM

>  <Ki>
50

$$$$
>  <query smiles>
Cn1c(-c2ccco2)nc2c(NC(=O)Cc3ccccc3)ncnc21

>  <measurement unit>
nM

>  <Ki>
110

$$$$
>  <query smiles>
CCn1c(-c2ccco2)nc2c(N)ncnc21

>  <measurement unit>
nM

>  <Ki>
3.7

$$$$
>  <query smiles>
CCCn1c(-c2ccco2)nc2c(N)ncnc21

>  <measurement unit>
nM

>  <Ki>
18

$$$$
>  <query smiles>
Cn1c(-c2ccco2)nc2c(N)ncnc21

>  <measurement unit>
nM

>  <Ki>
7.5

$$$$
>  <query smiles>
Cn1c(-c2ccco2)nc2c(NC(=O)C(c3ccccc3)c3ccccc3)ncnc21

>  <measurement unit>
nM

>  <Ki>
59

$$$$
>  <query smiles>
Cn1c(-c2ccco2)nc2c(NC(=O)c3ccc(-c4ccccc4)cc3)ncnc21

>  <measurement unit>
nM

>  <Ki>
1270

$$$$
>  <query smiles>
Cc1ccc(COc2ccc(CC(=O)Nc3ncnc4c3nc(-c3ccco3)n4C)cc2)cc1

>  <measurement unit>
nM

>  <Ki>
89

$$$$
>  <query smiles>
Nc1ncnc2c1nc(-c1ccco1)n2CCCO

>  <measurement unit>
nM

>  <Ki>
15

$$$$
>  <query smiles>
Nc1ncnc2c1nc(-c1ccco1)n2CCO

>  <measurement unit>
nM

>  <Ki>
33

$$$$
